These data points were gathered from ChEMBL document CHEMBL4396914.

Give MIC for every item shown.
# Test system: Candida albicans
# TEST NAME: Antifungal activity against azole-susceptible Candida albicans ATCC 90028 assessed as reduction in fungal growth incubated for 48 hrs by broth microdilution method
# Type: functional
# CONDITIONS: ATCC 90028, 48 h
Answers are plain numbers, in µg/mL.

Cl.N#Cc1ccc(C(=O)OC(Cn2ccnc2)c2ccc(Cl)cc2Cl)cc1 (racemic)
8
O=C(/C=C/c1ccccc1)O/N=C(\Cn1ccnc1)c1ccc(Cl)cc1Cl
2
Cl.O=C(OC(Cn1ccnc1)c1ccc(Cl)cc1Cl)c1ccc(-c2ccccc2)cc1 (racemic)
0.25
Cl.O=C(OC(Cn1ccnc1)c1ccc(Cl)cc1Cl)c1ccc(C(F)(F)F)cc1 (racemic)
256

For each of the items listed, what is its MIC?
1. CC(C)(C)c1ccc(C(=O)OC(Cn2ccnc2)c2ccc(Cl)cc2Cl)cc1.Cl (racemic)
2. N#Cc1ccc(C(=O)O/N=C(\Cn2ccnc2)c2ccc(Cl)cc2Cl)cc1
3. CCc1ccc(C(=O)OC(Cn2ccnc2)c2ccc(Cl)cc2Cl)cc1.Cl (racemic)
4. Cl.O=C(O/N=C(\Cn1ccnc1)c1ccc(Cl)cc1Cl)c1ccc2ccccc2n1
5. Cl.O=C(O/N=C(\Cn1ccnc1)c1ccc(Cl)cc1Cl)c1ccc2ccccc2c1

A:
1: 128; 2: 128; 3: 256; 4: 128; 5: 256
